- target: PD-1/PD-L1 complex (hPD-1, hPD-L1) (Homo sapiens)
- Sequence (Q9NZQ7 19-238 limits assumed, one chain of several): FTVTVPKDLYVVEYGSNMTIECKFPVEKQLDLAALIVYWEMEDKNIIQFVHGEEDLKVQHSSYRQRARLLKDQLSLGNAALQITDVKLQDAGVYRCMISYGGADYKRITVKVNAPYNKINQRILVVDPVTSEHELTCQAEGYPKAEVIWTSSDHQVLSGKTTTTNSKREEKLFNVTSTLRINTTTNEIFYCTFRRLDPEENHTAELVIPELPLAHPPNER
- assayExplanation: HTRF assay of PD-1/PD-L1 complex disruption (Cis-Bio kit)
- cond: disruption of PD-1/PD-L1 complex, n = 2
reportedMetric: IC50 (nM)

// worked examples, IC50 included
COc1cc(-c2cccc(-c3ccc4c(c3)OCCO4)c2Cl)ccc1CN1CCCCC1C(=O)NC(CO)CO (stereo not shown) | 63.6
COc1cc(-c2cccc(-c3ccc4c(c3)OCCO4)c2Cl)ccc1CN1CCCCC1C(=O)NCCO (stereo not shown) | 0.9
COc1cc(-c2cccc(-c3ccc4c(c3)OCCO4)c2Cl)ccc1CN1CCCCC1C(=O)NN (stereo not shown) | 16.7

A: COc1cc(-c2cccc(-c3ccc4c(c3)OCCO4)c2Cl)ccc1CN1CCC(C(=O)NO)C1 (stereo not shown)
B: COc1cc(-c2cccc(-c3ccc4c(c3)OCCO4)c2Cl)ccc1CN1CCC(C(=O)NCCO)CC1
C: COc1cc(-c2cccc(-c3ccc4c(c3)OCCO4)c2Cl)ccc1CN1CCCC(C(=O)NN(C)C)C1 (stereo not shown)
D: COc1cc(-c2cccc(-c3ccc4c(c3)OCCO4)c2Cl)ccc1CN1CCC(C(=O)NN(C)C)C1 (stereo not shown)
E: COc1cc(-c2cccc(-c3ccc4c(c3)OCCO4)c2Cl)ccc1CN1CCC(C(=O)NCCN)C1 (stereo not shown)
Prompt: Endpoint returns the given compounds ordered by ascending IC50. Your reply should list the labels following the order given in the request.
Completion: B, A, E, D, C
(B: 0.55 nM, A: 0.94 nM, E: 4.94 nM, D: 12 nM, C: 37 nM)

All values here come from paper PMC10788941.
